Recorded values, source PubChem BioAssay (EPA / NIEHS).

# assayRemarks: APR_HepG2_p53Act_72hr: Apredica 72-hour HepG2 Assay for p53 Activation (AID 2282923);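 note: average cellular p53 protein immunofluorescence intensity in HepG2 cells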
# particulars: high-content imaging, actives raise or lower the signal
The source made the active and inactive calls. Rule for the calls: active = hit-call score of the fitted dose curve at least 0.9, where 1 is the maximum; inactive = score below 0.9.
measuredMetric: AC50

[[record]]
smi = "O=C1O[C@H]([C@H](O)CO)C(O)=C1O"
valuereported = "inactive"

[[record]]
smi = "NCCOCCOCCN"
valuereported = "7.09 µM (active)"

[[record]]
smi = "O=C(O)CN(CC(=O)O)CC(=O)O"
valuereported = "inactive"

[[record]]
smi = "COc1ccc(C(=O)Nc2nc3ccccc3c(NCc3ccccc3)c2C#N)cc1"
valuereported = "inactive"


---

# assayRemarks: CEETOX_H295R_OHPROG: CeeTox H295R High-throughput Steroidogenesis Assay for OH-Progesterone (OHPROG) (AID 2283435)
# particulars: actives raise or lower the signal
# Method: CEETOX_H295R is a cell-based, multiplexed-readout assay that uses H295R, a human adrenal gland cell line, with measurements taken at 48 hours after chemical dosing in a 96-well plate.CEETOX_H295R_OHPROG is one of 23 assay component(s) measured or calculated from the CEETOX_H295R assay. […] This assay endpoint, CEETOX_H295R_OHPROG, was analyzed with bidirectional fitting relative to DMSO as the negative control and baseline of activity. […]
Active and inactive are the calls of the source. How the source made its calls: active means hit-call score of the fitted dose curve at least 0.9, where 1 is the maximum; inactive means score below 0.9.
Response enum: active, inactive

[[record]]
smi = "Nc1nc(Cl)nc2c1ncn2[C@H]1C[C@H](O)[C@@H](CO)O1"
discretelabel = "inactive"

[[record]]
smi = "O=C1OC(c2ccc(O)cc2)(c2ccc(O)cc2)c2ccccc21"
discretelabel = "active"

[[record]]
smi = "CC(=O)[C@@]1(O)CC[C@H]2[C@@H]3CCC4=CC(=O)CC[C@]4(C)[C@H]3CC[C@@]21C"
discretelabel = "active"


Exercise: Returns: the outcome recorded for `CCCCCCCCCC[N+](C)(C)[O-]` in this assay.
Solution: active

Exercise: Same for `CC1=C(C)S(=O)(=O)CCS1(=O)=O`
Solution: inactive

Exercise: What do you have for `CC(C)(O)c1ccc(CNC(=O)c2cccnc2Oc2ccc(F)cc2)cc1` ?
Solution: inactive

---

# Read-out: Interleukin 6 (IL6), IL6 (gene 3569)
# assayRemarks: LTEA_HepaRG_IL6: Life Technologies and Expression Analysis (LTEA) Assay for Interleukin 6 (IL6) using HepaRG (AID 2283509)
# particulars: mRNA level, 48 h; actives raise or lower the signal
Active and inactive are the calls of the source. How the source made its calls: active means hit-call score of the fitted dose curve at least 0.9, where 1 is the maximum; inactive means score below 0.9.
Log the outcome using a class from Y (active), N (inactive)

Record excerpt, results attached:
[[record]]
compound = "CCCCCCC(C=O)=Cc1ccccc1"
discretelabel = "N"

[[record]]
compound = "O=C(O)CC(O)(CC(=O)O)C(=O)O"
discretelabel = "N"

[[record]]
compound = "O=Cc1ccccc1C=O"
discretelabel = "N"

[[record]]
compound = "CC(=O)O"
discretelabel = "N"

[[record]]
compound = "CC(=O)OCC(COC(C)=O)OC(C)=O"
discretelabel = "N"


Exercise: What was the test verdict on `O=C(O)c1cccnc1` ?
Solution: N

---

# assayRemarks: BSK_hDFCGF_SRB: Viability Assessment in the BioMAP Diversity Plus: hDFCGF Assay (AID 2283061);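 note: cells exposed to compound for 24 h before the read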
# particulars: primary human foreskin fibroblasts
Active and inactive are the calls of the source. How the source made its calls: active means hit-call score of the fitted dose curve at least 0.9, where 1 is the maximum; inactive means score below 0.9.
Choose one outcome from this list and give only that: active, inactive

[[record]]
compound = "CSc1ccc(Oc2ccc(S(N)(=O)=O)cc2CN(C)C)cc1C"
discretelabel = "inactive"

[[record]]
compound = "CC(C)NCC(O)c1ccc(O)c(O)c1 (stereo not drawn)"
discretelabel = "inactive"


Exercise: What outcome does the record of this test show for `Cc1cc(SC2=C(O)C[C@@](CCc3ccc(N)cc3)(C(C)C)OC2=O)c(C(C)(C)C)cc1CO` ?
Solution: inactive

---

# Read-out: Apoptosis regulator Bcl-2 (Homo sapiens)
# assayRemarks: LTEA_HepaRG_BCL2: Life Technologies and Expression Analysis (LTEA) Assay for Bcl-2 gene using HepaRG (AID 2283475);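 note: BCL2 transcript by TaqMan qRT-PCR normalised to ACTB GAPDH and POLR2A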
# particulars: mRNA level, 48 h; actives raise or lower the signal
Active and inactive are the calls of the source. How the source made its calls: active means hit-call score of the fitted dose curve at least 0.9, where 1 is the maximum; inactive means score below 0.9.
Your answer must be one of the following: true (1) (active), false (0) (inactive)

[[record]]
molecule = "CCCCC(CC)COC(=O)CCCCCCCC(=O)OCC(CC)CCCC (stereo unspecified)"
discretelabel = "false (0)"

[[record]]
molecule = "CC(=O)O[C@]1(C(C)=O)CC[C@H]2[C@@H]3C=C(Cl)C4=CC(=O)[C@@H]5C[C@@H]5[C@]4(C)[C@H]3CC[C@@]21C"
discretelabel = "false (0)"

[[record]]
molecule = "Cc1cc(Cc2ccc(N)c(C)c2)ccc1N"
discretelabel = "false (0)"

[[record]]
molecule = "CCc1cc(C2=C(C(=O)O)N(c3ccccc3C(F)(F)F)S(=O)(=O)c3ccccc32)cc2c1OCO2"
discretelabel = "true (1)"

[[record]]
molecule = "CC(N)=O"
discretelabel = "false (0)"


Please turn your attention to the following entry.
Exercise: Record request — test call for `N[C@@H](Cc1c[nH]c2ccccc12)C(=O)O`
Solution: false (0)

---

# Read-out: MYC, MYC (gene 4609)
# assayRemarks: LTEA_HepaRG_MYC: Life Technologies and Expression Analysis (LTEA) Assay for MYC using HepaRG (AID 2283518)
# particulars: mRNA level, 48 h; actives raise or lower the signal
Calls of active or inactive are those of the source. How the source made its calls: active means hit-call score of the fitted dose curve at least 0.9, where 1 is the maximum; inactive means score below 0.9.
Form entry, call: pick from active, inactive

[[record]]
smi = "OCC(O)CO"
discretelabel = "inactive"


Exercise: // return assay outcome for `CCN(CC)CCOc1ccc(C(=C(Cl)c2ccccc2)c2ccccc2)cc1`
Solution: active

Exercise: Queued: `CC(C)OC(=O)C(C)(C)Oc1ccc(C(=O)c2ccc(Cl)cc2)cc1`
Solution: inactive

Exercise: Next compound: `CCCC[C@H]1CN(CC2CCOCC2)C(=O)OC12CCN(C1(C)CCN(C(=O)c3c(C)ncnc3C)CC1)CC2`
Solution: inactive

Exercise: One more compound: `Cc1ccc(-c2cc(C(F)(F)F)nn2-c2ccc(S(N)(=O)=O)cc2)cc1`
Solution: active

Exercise: Now consider `COc1ccc(C(=O)Nc2nc3ccccc3c(NCc3ccccc3)c2C#N)cc1` .
Solution: active

---

# assayRemarks: CCTE_Simmons_MITO_viability: CellTiter-Glo Viability Assessment for CCTE's HepG2 Seahorse XF Respirometric Screening Assay [post-hoc], Simmons Lab (AID 2284007);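 for AC50: cells exposed to chemical for 90 min before the ATP read; actives lower ATP signal relative to DMSO baseline meaning reduced viability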
Records with an inconclusive call do not appear. Activity calls are given as the source filed them. How the source made its calls: active means hit-call score of the fitted dose curve at least 0.9, where 1 is the maximum; inconclusive means response in the unintended direction; inactive means score below 0.9.
measuredMetric: AC50

Solved entries (count: 4):
[[record]]
smi = "CCN(CC)CCOc1ccc(C(=C(Cl)c2ccccc2)c2ccccc2)cc1"
valuereported = "84.2 µM (active)"

[[record]]
smi = "O=C1OC(c2ccc(O)cc2)(c2ccc(O)cc2)c2ccccc21"
valuereported = "9.92 µM (active)"

[[record]]
smi = "CC(C)(O)c1ccc(CNC(=O)c2cccnc2Oc2ccc(F)cc2)cc1"
valuereported = "inactive"

[[record]]
smi = "Cc1cc(SC2=C(O)C[C@@](CCc3ccc(N)cc3)(C(C)C)OC2=O)c(C(C)(C)C)cc1CO"
valuereported = "inactive"


Exercise: Fill in the blank: the reported AC50 of `Cc1ccc(C(C)(C)C)c(O)c1` is ____.
Solution: inactive

---

# assayRemarks: BSK_BE3C_SRB: Viability Assessment in the BioMAP Diversity Plus: BE3C Assay (AID 2283028);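 for AC50: fitted both ways so AC50 may mark signal gain or loss versus DMSO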
# particulars: primary human bronchial epithelial cells
Activity calls are given as the source filed them. Rule for the calls: active = hit-call score of the fitted dose curve at least 0.9, where 1 is the maximum; inactive = score below 0.9.
measuredMetric: AC50

Some solved entries appear below for comparison.
[[record]]
compound = "NC1CCCCC1"
valuereported = "inactive"

[[record]]
compound = "CCN(CC)CCOc1ccc(C(=C(Cl)c2ccccc2)c2ccccc2)cc1"
valuereported = "27.8 µM (active)"

[[record]]
compound = "CC(C)(O)c1ccc(CNC(=O)c2cccnc2Oc2ccc(F)cc2)cc1"
valuereported = "inactive"

[[record]]
compound = "CC(C)NCC(O)c1ccc(O)c(O)c1 (centres undefined)"
valuereported = "inactive"

[[record]]
compound = "CN(C)CCCN1c2ccccc2Sc2ccc(Cl)cc21"
valuereported = "39 µM (active)"


Hi team, please reply with AC50 for each item in this list.
1. O=C1NC(=O)C(c2ccccc2)(c2ccccc2)N1
2. CC(=O)S[C@H](C(=O)N[C@H]1Cc2ccccc2[C@H]2CCC[C@@H](C(=O)O)N2C1=O)C(C)C
3. CCCCc1nc2cccnc2n1Cc1ccc(-c2ccccc2-c2nnn[nH]2)cc1
4. O=[Si]=O

Solution:
inactive
inactive
inactive
inactive

---

# Read-out: E-selectin (Homo sapiens) (UniProt P16581)
# Sequence (P16581 whole entry, looked up): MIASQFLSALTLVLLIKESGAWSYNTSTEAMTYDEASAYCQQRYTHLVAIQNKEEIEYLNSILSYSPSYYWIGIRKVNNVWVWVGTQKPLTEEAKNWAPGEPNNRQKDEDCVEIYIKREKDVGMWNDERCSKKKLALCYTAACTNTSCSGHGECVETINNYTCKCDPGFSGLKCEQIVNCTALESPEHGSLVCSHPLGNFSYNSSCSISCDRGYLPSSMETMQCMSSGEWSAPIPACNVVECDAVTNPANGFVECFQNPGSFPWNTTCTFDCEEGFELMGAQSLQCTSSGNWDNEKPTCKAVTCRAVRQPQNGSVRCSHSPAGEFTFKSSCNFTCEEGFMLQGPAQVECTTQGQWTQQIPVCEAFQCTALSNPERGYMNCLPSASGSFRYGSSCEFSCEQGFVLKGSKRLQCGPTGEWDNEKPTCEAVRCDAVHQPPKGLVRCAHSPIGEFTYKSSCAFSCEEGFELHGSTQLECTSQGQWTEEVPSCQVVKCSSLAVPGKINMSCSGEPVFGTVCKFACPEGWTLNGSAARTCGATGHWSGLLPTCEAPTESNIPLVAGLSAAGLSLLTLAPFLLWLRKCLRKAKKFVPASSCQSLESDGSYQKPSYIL
# assayRemarks: BSK_SAg_Eselectin: BioMAP Diversity Plus: SAg Assay for Eselectin Biomarker Activity (AID 2283091)
# particulars: primary human HUVEC with PBMC; actives raise or lower the signal
# Description: BSK_SAg is a cell-based, multiplexed-readout assay that uses umbilical vein endothelium and peripheral blood mononuclear cells, a human vascular primary cell co-culture, with measurements taken at 24 hours after chemical dosing in a 96-well plate.BSK_SAg_Eselectin is an assay component measured in the BSK_SAg assay. It measures E-selectin antibody related to regulation of gene expression using ELISA technology.Data from the assay component BSK_SAg_Eselectin was analyzed into 1 assay endpoint. […]
Calls of active or inactive are those of the source. Rule for the calls: active = hit-call score of the fitted dose curve at least 0.9, where 1 is the maximum; inactive = score below 0.9.
measuredMetric: AC50

[[record]]
molecule = "O=C(O)CN(CC(=O)O)CC(=O)O"
measuredmetric = "AC50"
valuereported = "inactive"

[[record]]
molecule = "O=C1NC(=O)C(c2ccccc2)(c2ccccc2)N1"
measuredmetric = "AC50"
valuereported = "inactive"

[[record]]
molecule = "C/C=C/c1ccc(OC)cc1"
measuredmetric = "AC50"
valuereported = "inactive"

[[record]]
molecule = "CSc1ccc(Oc2ccc(S(N)(=O)=O)cc2CN(C)C)cc1C"
measuredmetric = "AC50"
valuereported = "inactive"

[[record]]
molecule = "O=C(N[C@@H](c1ccccc1)[C@@H]1CCCCN1)c1cccc(C(F)(F)F)c1Cl"
measuredmetric = "AC50"
valuereported = "12.3 µM (active)"

[[record]]
molecule = "CC(=O)OC1CC(C)OC(C)O1 (stereo not drawn)"
measuredmetric = "AC50"
valuereported = "inactive"

[[record]]
molecule = "Cc1cn([C@H]2C=C[C@@H](CO)O2)c(=O)[nH]c1=O"
measuredmetric = "AC50"
valuereported = "inactive"

[[record]]
molecule = "Nc1nc(=S)c2[nH]cnc2[nH]1"
measuredmetric = "AC50"
valuereported = "inactive"


Can you give me AC50 for all of these, one by one?
1. CCCCCCCC(=O)OC
2. O=C1OC(c2ccc(O)cc2)(c2ccc(O)cc2)c2ccccc21
3. NC=O
4. O=C(O)c1cccnc1

Solution:
["inactive", "23.8 µM (active)", "inactive", "inactive"]

Exercise: May I ask what AC50 has been recorded for `O=C(NS(=O)(=O)/C=C/c1cccs1)c1ccc(F)cc1Br` ?
Solution: inactive
